The following compounds are listed with their measured MIC values.
Tested on: E. coli
Experiment: Gram negative MIC protocol (OD600, LB, 24 h)
Settings: Escherichia coli, read-out: MIC E. coli delta-TolC LB Media, E. coli delta-TolC, LB media, OD600

Provide value of MIC for this record tested with E. coli: O=C1Cc2ccccc2CN1C1CCCCC1
> 150 µM

---
Provide value of MIC for this record tested with E. coli: FC(F)(F)c1ccc(CC2(NCc3ccccc3)CC2)cc1
90 µM

Provide value of MIC for this record tested with E. coli: c1ccc(CNCCc2cccc3c2NCCC3)cc1
> 150 µM

Provide value of MIC for this record tested with E. coli: FC1(F)Oc2ccc(CCNCc3ccccc3)cc2O1
> 150 µM

Provide value of MIC for this record tested with E. coli: c1ccc(CNC2(Cc3ccccc3)CC2)cc1
> 150 µM

Provide value of MIC for this record tested with E. coli: c1ccc(CNCCc2ccc3cn[nH]c3c2)cc1
> 150 µM
